So I've got a bunch of compounds here, and I need their TGI values.
- System: HOP-92 NSCLC
- assay_protocol: NCI tumour cell line growth inhibition, 48 h
Give bare numbers, in µM.

Please review the entries below; each comes with its answer.
COc1ccc(-c2ncnc3c2ncn3CC#CCCl)cc1    11.8
CCC1=C(c2ccc(OC)cc2)C(C)(C)Oc2c1ccc(O)c2CN1CCCC1    3.98
CC1(C)N=C(N)N=C(N)N1c1ccc(CNC(=O)Nc2ccc(S(=O)(=O)F)c(Cl)c2)c(Cl)c1    97.5
CC(=O)O.CN1[CH-]N(Cc2ccc(C#N)cc2)c2ccccc21.[Ag+]    40.7
COc1cc2nc(N3CCCN(C)CC3)nc(NC3CCN(Cc4ccccc4)CC3)c2cc1OC    13.6
COc1ccc(/[N+]([O-])=C/c2ccc(OC(=S)S)c(OC)c2)cc1    81
COc1ccc(/C=C/c2cc(OC)c(OC(C)=O)c(OC)c2)cc1    65.1
CC1=C(C#N)C23C(=O)N(c4ccccc4)C(=O)C2=C(O)C=CC3(O)N1Cc1ccc(Cl)cc1Cl (stereo not given)    13.3
CN(C)CCNc1ccc2ncn3c4ccc(O)cc4c(=O)c1c23    13.8
COc1cc(CCC[P+](c2ccccc2)(c2ccccc2)c2ccccc2)c(OC)c2c1OCO2    6.88

# map each compound to its TGI
1. COC(=O)[C@H](Cc1ccccc1)NC(=O)c1ccc(CNC(=O)/C=C/c2ccc(OCc3ccccc3)cc2)cc1
2. Nc1ncc(-c2ccc3ncnc(Nc4cccc(Cl)c4)c3c2)cn1

Result:
[9.43, 0.0974]

###

- Test system: NCI-H522 lung
- assay_protocol: NCI tumour cell line growth inhibition, 48 h
The label depends only on TGI: 1 (yes) if it is at least 5 µM, 0 (no) if it is smaller.

Would you please look over these solved cases?
O=[N+]([O-])c1ncc(N(CCO)CCO)s1    1 (yes)
COC(=O)[C@H](Cc1ccccc1)NC(=O)c1ccc(CNC(=O)/C=C/c2ccc(OCc3ccccc3)cc2)cc1    1 (yes)
CC(=O)Nc1nc(C)c(S(=O)(=O)NC(=O)NC2NC(=O)NC2=O)s1 (stereo not given)    1 (yes)
Cc1cc2c(F)c(Oc3ncnc(Nc4ccc(N5C[C@@H](C)N[C@@H](C)C5)cc4)c3C#N)cc(F)c2[nH]1    0 (no)

Request: Reported TGI reaches at least 5 µM for [N-]=[N+]=NCN1C(=O)C2C3C=CC(C2C1=O)C1C2C(=O)N(CN=[N+]=[N-])C(=O)C2C31 (stereo not given) ?
Result: 1 (yes)

Request: Does the reported TGI for Fc1cccc(COc2ccc(Nc3ncnc4onc(-c5ccccc5)c34)cc2)c1 fall at or above the 5 µM mark?
Result: 0 (no)

Request: Check the entry COc1ccc(CC(=O)NCCc2ccc(OC)c(OC)c2OC)cc1 : does TGI equal or exceed 5 µM?
Result: 1 (yes)

Request: Decide: is the reported value of TGI for CC1(C)N=C(N)N=C(N)N1c1ccc(CNC(=O)Nc2ccc(S(=O)(=O)F)c(Cl)c2)c(Cl)c1 equal to or greater than 5 µM?
Result: 1 (yes)

Request: Decide: TGI of CC(=O)OC12C(C)=C(C)C(=O)N1c1ccccc1N2C(C)=O (stereo not given) >= 5 µM?
Result: 1 (yes)

Request: Is reported TGI greater than or equal to 5 µM here: Cn1c(-c2ccco2)ccc1-c1ccc(C=O)o1
Result: 1 (yes)

Request: Could you please find out whether O=P1(c2ccccc2)C(c2ccccc2)CCC1c1ccccc1 (stereo not given) has TGI that meets 5 µM or exceeds it?
Result: 1 (yes)

Request: Could you tell me if the measured TGI of CCOC(=O)C(NC(=O)c1cccc(Cl)c1)(Nc1ccc(S(=O)(=O)Nc2cc(C)on2)cc1)C(F)(F)F (stereo not given) reaches 5 µM or more?
Result: 1 (yes)

Request: Check the entry COc1ccc(/C=C2\N=C(N3CCCC(CO)C3)NC2=O)cc1 (stereo not given) : does TGI equal or exceed 5 µM?
Result: 1 (yes)

###

- Tested on: SNB-78 CNS
- assay_protocol: NCI tumour cell line growth inhibition, 48 h
measurement_kind: TGI

CC(=O)OC12C(C)=C(C)C(=O)N1c1ccccc1N2C(C)=O (stereo not given)    > 100 µM

Quick request: TGI for each listed item, please.
1. COc1ccc(CC(=O)NCCc2ccc(OC)c(OC)c2OC)cc1
2. S=P1(Sc2ccccc2)Oc2ccc3ccccc3c2-c2c(ccc3ccccc23)O1
3. COC(=O)CCC(=O)Nc1ccc(Cl)cc1C
4. NC(=S)N1N=C2CCCCCC[C@@H]2[C@H]1c1ccccc1
5. Nc1nc(=O)n(C2CCC(CO)O2)cc1F (stereo not given)
6. CC(C)(C)C(=O)N1C(C(=O)O)Cc2ccccc2[C@@H]1Cc1ccccc1 (stereo not given in full)
7. CC(C)(C)c1ccc2c(c1)OP1(Oc3c(Cl)cc(Cl)c4cccnc34)(O2)Oc2ccc(C(C)(C)C)cc2O1
8. CSC(=O)C[C@@]12O[C@@H]([C@@H](C)C3CCC4[C@@H]5C(O)CC6=CC(=O)C=C[C@]6(C)C5CC[C@@]43C)C[C@](C)(O1)C(C)(C)O2 (stereo not given in full)

Result:
["> 100 µM", "> 100 µM", "> 100 µM", "> 100 µM", "> 100 µM", "> 100 µM", "> 86.8 µM", "37.6 µM"]

Request: Need TGI of c1ccc2c3c(ccc2c1)-c1[nH]ncc1CCO3 , thanks.
Result: > 100 µM

###

- System: OVCAR-3 ovarian
- assay_protocol: NCI tumour cell line growth inhibition, 48 h
I'd appreciate it if you could supply TGI values for the items below.

CCOC(=O)C12CCCC1(O)N(NC(=O)OC)C(C)=C2C(=O)OC (stereo not drawn)    > 10 µM
Cc1cc(N(CCC#N)CCC#N)ccc1/C(N=Nc1ccc([N+](=O)[O-])cc1)=N\NC(=O)c1cc(Cl)ccc1O    38.2 µM

Record TGI per entry; entries follow.
1. ClCc1nc2ccccc2[nH]1
2. COC(=O)C1=C(C)NC(=O)N2[C@@H](CCOCc3ccccc3)CC[C@@H]12
3. CCSC[C@@H]1C[C@](O)(c2ccc(Cl)cc2)[C@@H](c2ccc(Cl)cc2)O1
4. Cn1c(-c2ccc(C=O)o2)ccc1-c1ccc(C=O)o1

Result:
1. > 100 µM
2. > 50 µM
3. 36.1 µM
4. 81.2 µM

###

Provide the reported TGI of each item.
- System: HOP-18 NSCLC
- assay_protocol: NCI tumour cell line growth inhibition, 48 h

S=P1(Sc2ccccc2)Oc2ccc3ccccc3c2-c2c(ccc3ccccc23)O1    > 100 µM
CCC[CH2][Sn](=[O])[CH2]CCC    > 50 µM
CCN(CC)CCN(CC)CC.CCN(CC)CCN(CC)CC.[Cu+2].[Cu+2].[O-][Cl+3]([O-])([O-])[O-].[OH3+].[OH3+]    > 100 µM
CC(C)(C)C(=O)N1C(C(=O)O)Cc2ccccc2[C@@H]1Cc1ccccc1 (stereo partly drawn)    > 100 µM
CCOC(=O)C1(C(=O)OCC)C(C(C)(C)C)=C(C)c2ccccc21    70.2 µM
CC(C)(C)C1=CC(=N/N=c2\scc(-c3ccccc3)n2-c2ccccc2)C=C(C(C)(C)C)C1=O    > 100 µM
Cc1ccc(/C=C/C(=O)c2ccc(Cl)c(Cl)c2)cc1    > 100 µM

Now for a further molecule.
Request: Under HOP-18 NSCLC: TGI value of CCCCCCCCCCCCSC(=S)c1c(C)[nH]n(-c2ccccc2)c1=O ?
Result: > 50 µM

###

- Tested on: SR leukemia
- assay_protocol: NCI tumour cell line growth inhibition, 48 h; in the data active means GI50 below about 0.43 µM; inactive means the rest
Select the matching outcome among active, inactive

Worked examples follow.
CN(C)c1ccc(/C=N/NC(N)=S)nc1    inactive
CC1=C(C#N)C23C(=O)N(c4ccccc4)C(=O)C2=C(O)C=CC3(O)N1Cc1ccc(Cl)cc1Cl (stereo not given)    inactive
FC1(F)ON2CCc3ccccc3C2[C@H]1c1ccccc1 (stereo not given in full)    inactive

Request: What call does the record list for CCSC[C@@H]1C[C@](O)(c2ccc(Cl)cc2)[C@@H](c2ccc(Cl)cc2)O1 ?
Result: inactive

Request: Kindly provide the recorded test outcome for the following compound: COc1ccc(-c2ncnc3c2ncn3CC#CCCl)cc1
Result: inactive

Request: Hello, I am checking results. What call was entered for COc1cc(-n2ccnc2-c2ccc3ccccc3c2)cc(OC)c1OC ?
Result: active

###

- Test system: LOX IMVI melanoma
- assay_protocol: NCI tumour cell line growth inhibition, 48 h
Where a SMILES comes first, the peptide text is derived from it. [ ]: non-standard residue; d: D form. pGlu = O=C1CC[CH](C(=O)O)N1; Thz = O=C(O)[CH]1CSCN1
measurement_kind: TGI

These solved cases illustrate the format of a correct answer.
CCCCN(CC)C(=O)C(=O)Cc1nc2ccc(C(=O)c3ccccc3)cc2[nH]c1=O    > 100 µM
NC(=S)N1N=C2CCCCCC[C@@H]2[C@H]1c1ccccc1    > 100 µM
COC[C@H](NC(=O)c1cnc(C)s1)C(=O)N[C@@H](COC)C(=O)N[C@@H](Cc1ccccc1)C(=O)[C@@]1(C)CO1    38.4 µM
CCCCSC1=N/C(=C\c2ccccc2O)C(=O)N1    > 100 µM
COc1cc2nc(Nc3cccc(Cl)c3)nc(N)c2cc1OC    6.14 µM
CC(Oc1ccc2c(-c3ccc(Cl)cc3)cc(=O)oc2c1)C(=O)O (centres undefined)    > 100 µM

Hi there! I need TGI for each item below, if you can.
1. CC1=C(C#N)C23C(=O)N(c4ccccc4)C(=O)C2=C(O)C=CC3(O)N1Cc1ccc(Cl)cc1Cl (centres undefined)
2. CC(C)(C)OC(=O)NCC(CNC(=O)OC(C)(C)C)C(N)=O
3. CC(=O)Nc1nc(C)c(S(=O)(=O)NC(=O)NC2NC(=O)NC2=O)s1 (centres undefined)
4. Cc1ccc(OP(=O)(Oc2ccc(C)cc2)N2C=Cc3ccccc3C2C#N)cc1 (centres undefined)

Result:
2.94 µM
> 100 µM
> 100 µM
> 100 µM

// for each compound in input: emit TGI
1. O=C1CCC(C(=O)N2CSCC2C(=O)O)N1 (centres undefined) ([pGlu]-[Thz]-OH; configuration not given here)
2. CC(NC(=O)C1CCC(=O)N1)C(=O)N1CCCC1C(N)=O (stereo not drawn) ([pGlu]-Ala-Pro-NH2; configuration not given here)
3. CCOC(=O)C1(C(=O)OCC)C(C(C)(C)C)=C(C)c2ccccc21
4. Cc1c(NC(=S)Nc2ccc([N+](=O)[O-])cc2)c(=O)n(-c2ccccc2)n1C

Result:
["> 100 µM", "> 100 µM", "25 µM", "> 100 µM"]

Kindly give each listed record's TGI.
1. CN(C)Cc1cc(Cl)c(O)c(CN(C)C)c1
2. O=[N+]([O-])c1ncc(N(CCO)CCO)s1
3. CCOC(=O)C(=Cc1ccc(C#N)cc1)C(=O)OCC
4. O=[N+]([O-])c1nccn1CC(O)c1ccccc1 (centres undefined)
5. CC1(C)N=C(N)N=C(N)N1c1ccc(CNC(=O)Nc2ccc(S(=O)(=O)F)c(Cl)c2)c(Cl)c1

Result:
> 100 µM
31.9 µM
3.87 µM
> 100 µM
> 100 µM
